- System: KB
- assay.overview: Cytotoxicity against human KB cells after 72 hrs by sulforhodamine B colorimetric assay
- Format: functional, cell-based
pIC50: −log10 of the molar value.
# cutoff 7 applies to pIC50; >= gives true, < gives false

* CC[C@@]1(OC(=O)CN/C(Cc2ccc(OC)cc2)=N/S(=O)(=O)c2cccs2)C(=O)OCc2c1cc1n(c2=O)Cc2cc3ccccc3nc2-1 | true
* CCc1c2c(nc3ccccc13)-c1cc3c(c(=O)n1C2)COC(=O)[C@@]3(CC)OC(=O)CN/C(Cc1ccc(OC)cc1)=N/S(C)(=O)=O | true
* CC[C@@]1(OC(=O)CN/C(Cc2ccc(OC)cc2)=N/S(=O)(=O)c2ccc(C)cc2)C(=O)OCc2c1cc1n(c2=S)Cc2cc3ccccc3nc2-1 | false

Input: Is it the case that CCc1c2c(nc3ccc(OC(=O)N4CCC(N5CCCCC5)CC4)cc13)-c1cc3c(c(=O)n1C2)COC(=O)[C@]3(O)CC has pIC50 reaching or exceeding 7?
Output: false

Input: Is it the case that CC[C@@]1(OC(=O)CN/C(Cc2ccc(OC)cc2)=N/S(=O)(=O)c2ccc(F)cc2)C(=O)OCc2c1cc1n(c2=O)Cc2cc3ccccc3nc2-1 has pIC50 reaching or exceeding 7?
Output: true

Input: Is it the case that CCc1c2c(nc3ccccc13)-c1cc3c(c(=O)n1C2)COC(=O)[C@@]3(CC)OC(=O)C(C)N/C(Cc1ccc(Cl)cc1)=N/S(=O)(=O)c1ccc(C)cc1 (some centres not stated) has pIC50 reaching or exceeding 7?
Output: true

* * *

- System: A549
- assay.overview: Cytotoxicity against human A549 cells after 72 hrs by sulforhodamine B colorimetric assay
- Assay type: functional, cell-based
- condition.context: A549, 72 h
Please respond with Yes when measured IC50 is strictly beneath 30 nM, and with No in all other cases.

Check out these entries, answers already filled in.
- CC[C@@]1(OC(=O)CN/C(Cc2ccc(OC)cc2)=N/S(=O)(=O)N(C)C)C(=O)OCc2c1cc1n(c2=O)Cc2cc3ccccc3nc2-1: No
- CC[C@@]1(OC(=O)CN/C(Cc2ccc(OC)cc2)=N/S(=O)(=O)c2cccnc2)C(=O)OCc2c1cc1n(c2=O)Cc2cc3ccccc3nc2-1: No
- CC[C@@]1(OC(=O)CN/C(Cc2ccc(OC)cc2)=N/S(=O)(=O)c2ccc(C)cc2)C(=O)OCc2c1cc1n(c2=O)Cc2cc3c([N+](=O)[O-])cccc3nc2-1: No
- CCc1c2c(nc3ccccc13)-c1cc3c(c(=O)n1C2)COC(=O)[C@@]3(CC)OC(=O)C(C)N/C(Cc1ccc(OC)cc1)=N/S(=O)(=O)c1ccc(C)cc1 (stereo partly specified): Yes
- CC[C@@]1(OC(=O)CN/C(Cc2ccc(Cl)cc2)=N/S(=O)(=O)c2ccc(C)cc2)C(=O)OCc2c1cc1n(c2=O)Cc2cc3ccccc3nc2-1: No
- CC[C@@]1(OC(=O)CCCN/C(Cc2ccc(OC)cc2)=N\S(=O)(=O)c2ccc(C)cc2)C(=O)OCc2c1cc1n(c2=O)Cc2cc3ccccc3nc2-1: No
- CCc1c2c(nc3ccccc13)-c1cc3c(c(=O)n1C2)COC(=O)[C@@]3(CC)OC(=O)CN/C(Cc1ccccc1)=N/S(=O)(=O)c1ccc(C)cc1: Yes
- CCc1c2c(nc3ccccc13)-c1cc3c(c(=O)n1C2)COC(=O)[C@@]3(CC)OC(=O)CN/C(Cc1ccc(OC)cc1)=N/S(=O)(=O)c1ccc(C)cc1: Yes

Input: A record lists CCc1c2c(nc3ccccc13)-c1cc3c(c(=O)n1C2)COC(=O)[C@@]3(CC)OC(=O)CN/C(Cc1ccc(OC)cc1)=N/S(C)(=O)=O . Is its IC50 below 30 nM?
Output: Yes

Input: A record lists CCc1c2c(nc3ccc(O)cc13)-c1cc3c(c(=O)n1C2)COC(=O)[C@@]3(CC)OC(=O)CN/C(Cc1ccc(OC)cc1)=N/S(=O)(=O)c1ccc(C)cc1 . Is its IC50 below 30 nM?
Output: Yes

Input: A record lists CCc1c2c(nc3ccccc13)-c1cc3c(c(=O)n1C2)COC(=O)[C@@]3(CC)OC(=O)C(C)N/C(Cc1ccc(OC)cc1)=N/S(C)(=O)=O (stereo partly specified) . Is its IC50 below 30 nM?
Output: No

Input: A record lists CC[C@@]1(OC(=O)CN/C(Cc2ccc(OC)cc2)=N/S(=O)(=O)c2ccc(Cl)cc2)C(=O)OCc2c1cc1n(c2=O)Cc2cc3ccccc3nc2-1 . Is its IC50 below 30 nM?
Output: Yes

Input: A record lists CC[C@@]1(OC(=O)CN/C(Cc2ccccc2)=N/S(=O)(=O)c2ccc(C)cc2)C(=O)OCc2c1cc1n(c2=O)Cc2cc3c([N+](=O)[O-])cccc3nc2-1 . Is its IC50 below 30 nM?
Output: No

Input: A record lists CC[C@@](O)(C(=O)NCCN/C(Cc1ccc(OC)cc1)=N/S(=O)(=O)c1ccc(C)cc1)c1cc2n(c(=O)c1COC(C)=O)Cc1cc3ccccc3nc1-2 . Is its IC50 below 30 nM?
Output: No

* * *

Field: pIC50. Provide a value for each of the compounds that follow.
- Tested on: A549
- assay.overview: Cytotoxicity against human A549 cells after 72 hrs by sulforhodamine B colorimetric assay
- Assay type: functional, cell-based
- condition.context: A549, 72 h
Give bare numbers, as −log10 of the molar value.

• CC[C@@]1(OC(=O)CN/C(Cc2ccc(OC)cc2)=N/S(=O)(=O)c2ccc(F)cc2)C(=O)OCc2c1cc1n(c2=O)Cc2cc3ccccc3nc2-1 = 7.85
• CC[C@@]1(OC(=O)CN/C(Cc2ccc(OC)cc2)=N/S(=O)(=O)c2cccs2)C(=O)OCc2c1cc1n(c2=O)Cc2cc3ccccc3nc2-1 = 7.43

Reported pIC50 ( CC[C@@]1(OC(=O)C(C)N/C(Cc2ccc(OC)cc2)=N/S(=O)(=O)c2ccc(C)cc2)C(=O)OCc2c1cc1n(c2=S)Cc2cc3ccccc3nc2-1 (stereo partly drawn) ) = 7.06

* * *

- System: A549
- assay.overview: Cytotoxicity against human A549 cells after 72 hrs by sulforhodamine B colorimetric assay
- Format: functional, cell-based
- condition.context: A549, 72 h
endpoint.label: pIC50
Numbers only, as −log10 of the molar value.

Solved entries (count: 5):
* CCc1c2c(nc3ccccc13)-c1cc3c(c(=O)n1C2)COC(=O)[C@@]3(CC)OC(=O)C(C)N/C(Cc1ccccc1)=N/S(=O)(=O)c1ccc(C)cc1 (stereo partly specified) | 7.99
* CC[C@@]1(OC(=O)CCN/C(Cc2ccc(OC)cc2)=N\S(=O)(=O)c2ccc(C)cc2)C(=O)OCc2c1cc1n(c2=O)Cc2cc3ccccc3nc2-1 | 7.05
* CC[C@@]1(OC(=O)CN/C(Cc2ccc(OC)cc2)=N/S(=O)(=O)c2ccc(OC)cc2)C(=O)OCc2c1cc1n(c2=O)Cc2cc3ccccc3nc2-1 | 7.50
* CCc1c2c(nc3ccccc13)-c1cc3c(c(=O)n1C2)COC(=O)[C@@]3(CC)OC(=O)C(C)N/C(Cc1ccc(Cl)cc1)=N/S(=O)(=O)c1ccc(C)cc1 (stereo partly specified) | 7.89
* CCc1c2c(nc3ccc(OC(=O)N4CCC(N5CCCCC5)CC4)cc13)-c1cc3c(c(=O)n1C2)COC(=O)[C@]3(O)CC [IRINOTECAN] | 5.02

Please examine the following record next.
Reported pIC50 ( CCCCS(=O)(=O)/N=C(\Cc1ccc(OC)cc1)NCC(=O)O[C@]1(CC)C(=O)OCc2c1cc1n(c2=O)Cc2cc3ccccc3nc2-1 ) = 7.46

* * *

- Tested on: KB
- assay.overview: Cytotoxicity against human KB cells after 72 hrs by sulforhodamine B colorimetric assay
- Type: functional, cell-based
endpoint.label: pIC50
Numbers only, as −log10 of the molar value.

- CC[C@@]1(OC(=O)CN/C(Cc2ccc(OC)cc2)=N/S(C)(=O)=O)C(=O)OCc2c1cc1n(c2=O)Cc2cc3ccccc3nc2-1: 6.98
- CCc1c2c(nc3ccc(O)cc13)-c1cc3c(c(=O)n1C2)COC(=O)[C@@]3(CC)OC(=O)CN/C(Cc1ccc(OC)cc1)=N/S(=O)(=O)c1ccc(C)cc1: 8.35
- CC[C@@]1(OC(=O)CN/C(Cc2ccc(OC)cc2)=N/S(=O)(=O)c2ccc(C)cc2)CC(=O)OCc2c1cc1n(c2=O)Cc2cc3ccccc3nc2-1: 6.64
- CC[C@@]1(OC(=O)CN/C(Cc2ccc(OC)cc2)=N/S(=O)(=O)N(C)C)C(=O)OCc2c1cc1n(c2=O)Cc2cc3ccccc3nc2-1: 7.18
- CC[C@@](O)(C(=O)NCCN/C(Cc1ccc(OC)cc1)=N/S(=O)(=O)c1ccc(C)cc1)c1cc2n(c(=O)c1COC(C)=O)Cc1cc3ccccc3nc1-2: 6.03
- CC[C@@]1(OC(=O)C(C)N/C(Cc2ccc(OC)cc2)=N/S(=O)(=O)c2ccc(C)cc2)C(=O)OCc2c1cc1n(c2=S)Cc2cc3ccccc3nc2-1 (stereo partly drawn): 6.96

Count: 4. Required value per item: pIC50.
1. CC[C@@]1(OC(=O)CN/C(Cc2ccccc2)=N/S(=O)(=O)c2ccc(C)cc2)C(=O)OCc2c1cc1n(c2=O)Cc2cc3c([N+](=O)[O-])cccc3nc2-1
2. CC[C@@]1(OC(=O)CN/C(C[Si](C)(C)C)=N/S(=O)(=O)c2ccc(C)cc2)C(=O)OCc2c1cc1n(c2=O)Cc2cc3ccccc3nc2-1
3. CCc1c2c(nc3ccccc13)-c1cc3c(c(=O)n1C2)COC(=O)[C@@]3(CC)OC(=O)C(C)N/C(Cc1ccccc1)=N/S(=O)(=O)c1ccc(C)cc1 (stereo partly drawn)
4. CCCCS(=O)(=O)/N=C(\Cc1ccc(OC)cc1)NCC(=O)O[C@]1(CC)C(=O)OCc2c1cc1n(c2=O)Cc2cc3ccccc3nc2-1

Output:
1: 5.04; 2: 7.24; 3: 7.08; 4: 7.27

Count: 3. Required value per item: pIC50.
1. CC[C@@]1(OC(=O)CN/C(Cc2ccc(Cl)cc2)=N/S(=O)(=O)c2ccc(C)cc2)C(=O)OCc2c1cc1n(c2=O)Cc2cc3ccccc3nc2-1
2. CCc1c2c(nc3ccccc13)-c1cc3c(c(=O)n1C2)COC(=O)[C@@]3(CC)OC(=O)CN/C(Cc1ccccc1)=N/S(=O)(=O)c1ccc(C)cc1
3. CCc1c2c(nc3ccccc13)-c1cc3c(c(=O)n1C2)COC(=O)[C@@]3(CC)OC(=O)CN/C(Cc1ccc(OC)cc1)=N/S(=O)(=O)c1ccc(C)cc1

Output:
1: 7.00; 2: 7.05; 3: 8.03
